# tgt: PutA86–630 (PRODH domain of proline utilization A) (Escherichia coli, UniProt P09546)
# Sequence (P09546 86-630): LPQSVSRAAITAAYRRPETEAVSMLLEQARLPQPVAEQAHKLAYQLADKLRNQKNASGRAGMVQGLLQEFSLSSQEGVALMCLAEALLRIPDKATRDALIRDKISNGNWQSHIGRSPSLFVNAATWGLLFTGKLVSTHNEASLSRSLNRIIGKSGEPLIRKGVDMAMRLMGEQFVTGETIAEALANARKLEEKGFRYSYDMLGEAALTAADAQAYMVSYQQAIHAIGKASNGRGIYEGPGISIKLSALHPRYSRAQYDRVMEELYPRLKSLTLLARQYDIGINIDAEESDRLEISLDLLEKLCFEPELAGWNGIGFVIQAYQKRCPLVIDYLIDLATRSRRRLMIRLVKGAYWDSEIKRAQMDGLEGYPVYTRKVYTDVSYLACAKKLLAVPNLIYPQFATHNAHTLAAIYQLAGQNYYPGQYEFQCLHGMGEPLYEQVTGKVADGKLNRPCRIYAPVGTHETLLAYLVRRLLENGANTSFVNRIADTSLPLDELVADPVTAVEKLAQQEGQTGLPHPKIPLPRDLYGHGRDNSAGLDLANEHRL
# Format: biochemical
# condition_details: kcat of PutA86–630 from the global fit of the data set with this inhibitor
So I've got a bunch of compounds here, and I need their kcat values.
# number then unit; no other words

Reference set (2 entries):
{"compound": "O=C(O)C1CC1 [Compound 4, cyclopropanecarboxylic acid]", "property_measured": "kcat", "result": "1.20 ± 0.03 s⁻¹"}
{"compound": "O=C(O)C1CCCC1 [Compound 16, cyclopentanecarboxylic acid]", "property_measured": "kcat", "result": "1.35 ± 0.04 s⁻¹"}

Return reported kcat values for all items listed beneath this line.
1. CCC(=O)C(=O)O [Compound 17, 2-oxobutyric acid]
2. O=C(O)C1CCC1 [Compound 3, cyclobutanecarboxylic acid]
3. O=C(O)[C@@H]1CCO1 [Compound 18, (2S)-oxetane-2-carboxylic acid]

1: 1.14 ± 0.02 s⁻¹; 2: 1.47 ± 0.05 s⁻¹; 3: 1.42 ± 0.04 s⁻¹
